# system.under.test: T1, human CD98, endogenously expressed on Molt-4 human acute lymphoblastic leukemia cells (human)
# T1 chain: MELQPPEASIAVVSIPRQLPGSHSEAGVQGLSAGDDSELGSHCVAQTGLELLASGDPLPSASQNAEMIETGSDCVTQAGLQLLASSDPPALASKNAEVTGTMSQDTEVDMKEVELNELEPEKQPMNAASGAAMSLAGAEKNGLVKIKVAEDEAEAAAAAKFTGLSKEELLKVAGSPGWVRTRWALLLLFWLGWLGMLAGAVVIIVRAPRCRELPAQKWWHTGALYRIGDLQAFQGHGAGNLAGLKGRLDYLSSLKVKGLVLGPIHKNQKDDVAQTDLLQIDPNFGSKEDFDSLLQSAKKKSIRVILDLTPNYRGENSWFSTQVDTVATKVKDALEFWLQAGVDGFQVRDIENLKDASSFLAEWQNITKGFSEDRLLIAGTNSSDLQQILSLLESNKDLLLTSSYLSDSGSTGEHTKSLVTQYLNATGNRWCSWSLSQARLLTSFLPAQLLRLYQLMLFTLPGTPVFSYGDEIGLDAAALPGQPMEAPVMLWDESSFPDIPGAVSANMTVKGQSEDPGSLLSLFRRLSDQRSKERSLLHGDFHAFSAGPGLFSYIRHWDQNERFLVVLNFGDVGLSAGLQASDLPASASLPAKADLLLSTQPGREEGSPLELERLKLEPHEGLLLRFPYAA
# test.details: cell-based or functional assay
quantity.name: Molt4 IC50 (nM), 50% inhibition of cell proliferation, 72 h, ATPlite
A complete answer gives the number followed by the unit.

See these solved cases before continuing.
- binder: "CD98 (CL-huAb104)-SR (antibody, human IgG1, kappa, L234A L235A, V domains shown, synthon SR on reduced cysteine (see heavy chain); Bcl-xL inhibitor synthon SR on cysteines freed by TCEP reduction (Method A); DAR 2.2 by MS for the whole ADC) VH: EVQLVESGGGLVQPGGSLRLSCATSGFTFIDYYMSWVRQAPGKGLEWLGFIRNKAYGYTTEYSASVKGRFTISRDNSKSILYLQMNSLKTEDTAVYYCTRDRPAWFVYWGQGTLVTVSS VL: DIVMTQTPLSLPVTPGEPASISCKSSQSLLYSSNQKNYLAWYLQKPGQSPQLLIYWASTRESGVPDRFSGSGSGTDFTLKISRVEAEDVGVYYCQQYYSYPYTFGGGTKVEIKR"
  result: "0.045 nM"
- binder: "CD98 (CL-huAb110)-SR (antibody, human IgG1, kappa, L234A L235A, V domains shown, synthon SR on reduced cysteine (see heavy chain); Bcl-xL inhibitor synthon SR on cysteines freed by TCEP reduction (Method A); DAR printed as '.0.7' by MS for the whole ADC) VH: EVQLVQSGAEVKKPGASVKVSCKASGFTFSDYTMAWVRQAPGQGLEWVATIIYDARGTYYRDAVKGRFTITRDNSTSTLYLELSSLRSEDTAVYYCARQSDDTYYYWGYFDYWGQGTMVTVSS VL: DIVMTQTPLSLPVTPGEPASINCKSSQSLLFSGNQKNYLAWYLQKPGQSPQLLIYWASTRQSGVPDRFSGSGSGTDFTLKISRVEAEDVGIYYCQQYYSSPYTFGQGTKLEIKR"
  result: "0.332 nM"
- binder: "CD98 (CL-huAb102)-SR (antibody, human IgG1, kappa, L234A L235A, V domains shown, synthon SR on reduced cysteine (see heavy chain); Bcl-xL inhibitor synthon SR on cysteines freed by TCEP reduction (Method A); DAR 2.1 by MS for the whole ADC) VH: EVQLVESGGGLVQPGGSLRLSCATSGFTFIDYYMSWVRQAPGKGLEWLGFIRNKANRYTTEYSASVKGRFTISRDNSKSILYLQMNSLKTEDTAVYYCTRDRPAWFVYWGQGTLVTVSS VL: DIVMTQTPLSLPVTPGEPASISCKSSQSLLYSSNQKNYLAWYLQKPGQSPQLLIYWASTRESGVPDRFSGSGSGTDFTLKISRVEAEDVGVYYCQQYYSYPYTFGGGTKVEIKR"
  result: "0.03 nM"

Record Molt4 IC50 (nM), 50% inhibition of cell proliferation, 72 h, ATPlite for all entries; do not skip any.
1. CD98 (CL-huAb102)-XW (antibody, human IgG1, kappa, L234A L235A, V domains shown, synthon XW on reduced cysteine (see heavy chain); Bcl-xL inhibitor synthon XW on cysteines freed by TCEP reduction (Method G); DAR 2.8 by MS for the whole ADC) VH: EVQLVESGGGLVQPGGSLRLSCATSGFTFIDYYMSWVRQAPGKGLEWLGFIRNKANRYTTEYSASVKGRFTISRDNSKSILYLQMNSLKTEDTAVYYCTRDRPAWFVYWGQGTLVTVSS VL: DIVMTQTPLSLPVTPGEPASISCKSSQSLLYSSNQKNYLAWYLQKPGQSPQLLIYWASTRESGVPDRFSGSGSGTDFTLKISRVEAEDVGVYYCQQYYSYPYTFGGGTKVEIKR
2. CD98 (CL-huAb110)-XW (antibody, human IgG1, kappa, L234A L235A, V domains shown, synthon XW on reduced cysteine (see heavy chain); Bcl-xL inhibitor synthon XW on cysteines freed by TCEP reduction (Method G); DAR 3.2 by MS for the whole ADC) VH: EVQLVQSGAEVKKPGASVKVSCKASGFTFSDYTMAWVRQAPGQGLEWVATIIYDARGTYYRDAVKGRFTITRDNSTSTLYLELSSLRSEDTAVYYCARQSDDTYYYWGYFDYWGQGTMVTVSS VL: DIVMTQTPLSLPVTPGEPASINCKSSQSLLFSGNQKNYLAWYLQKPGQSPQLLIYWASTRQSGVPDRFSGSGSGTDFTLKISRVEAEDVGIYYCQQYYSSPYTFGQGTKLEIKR

["0.074 nM", "0.308 nM"]

All values here come from patent US20200121803A1.
